Target: human TRPV4 (Homo sapiens, UniProt Q9HBA0)
Sequence (Q9HBA0 whole entry): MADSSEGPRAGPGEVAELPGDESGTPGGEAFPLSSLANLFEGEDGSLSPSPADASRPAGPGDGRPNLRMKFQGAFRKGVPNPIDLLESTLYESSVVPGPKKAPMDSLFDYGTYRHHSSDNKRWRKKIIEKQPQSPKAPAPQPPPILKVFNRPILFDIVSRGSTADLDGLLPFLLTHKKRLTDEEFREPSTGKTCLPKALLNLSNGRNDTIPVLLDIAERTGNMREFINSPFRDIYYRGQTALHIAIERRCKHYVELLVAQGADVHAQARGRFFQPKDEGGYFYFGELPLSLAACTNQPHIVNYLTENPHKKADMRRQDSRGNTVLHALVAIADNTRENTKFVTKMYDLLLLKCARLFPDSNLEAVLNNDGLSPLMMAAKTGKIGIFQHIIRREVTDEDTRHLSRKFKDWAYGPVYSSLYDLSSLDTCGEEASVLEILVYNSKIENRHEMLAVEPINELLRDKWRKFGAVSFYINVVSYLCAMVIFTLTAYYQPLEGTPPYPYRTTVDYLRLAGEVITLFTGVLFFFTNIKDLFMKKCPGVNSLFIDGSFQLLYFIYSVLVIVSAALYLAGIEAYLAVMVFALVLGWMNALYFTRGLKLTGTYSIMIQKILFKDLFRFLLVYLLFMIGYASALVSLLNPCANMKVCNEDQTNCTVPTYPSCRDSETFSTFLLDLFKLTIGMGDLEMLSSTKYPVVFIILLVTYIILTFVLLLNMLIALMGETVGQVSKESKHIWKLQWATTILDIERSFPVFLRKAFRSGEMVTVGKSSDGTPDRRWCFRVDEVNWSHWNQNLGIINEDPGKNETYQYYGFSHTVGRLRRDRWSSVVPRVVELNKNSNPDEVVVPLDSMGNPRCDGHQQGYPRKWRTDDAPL
Experiment: Ligand-gated assay (Fluo4 calcium, FLIPR; inhibition of agonist-induced activation)
Settings: HEK-293-MSR-II cells transduced with BacMam human TRPV4; agonist at EC80
Experimental: TRP channel activation/opening results in an influx of divalent and monovalent cations including calcium. The resulting changes in intracellular calcium were monitored using a calcium selective fluorescent dye Fluo4 (MDS Analytical Technologies). […] Cells were subsequently activated by addition of an agonist and inhibition of the agonist-induced activation was recorded. […] Calcium release was measured using the FLIPRtetra (MDS Analytical Technologies) or FLIPR384 (MDS Analytical Technologies). […]
Counter-ions that a name gives are not always drawn.
The following compounds are shown together with reported IC50 values.

Some solved entries appear below for comparison.
# COMPOUND, VAL
measured = [
    ("N#Cc1ccc2ncn(C[C@H]3CCC[C@]4(C3)CN(Cc3cncc(-c5ccccc5)c3)C(=O)O4)c2c1 [Example 72, trifluoroacetate]", "50 to 500 nM"),
    ("CC(C)(CN1C[C@@]2(CCC[C@H](Cn3cnc4ccc(C#N)cc43)C2)OC1=O)c1nnc(-c2ccccc2)o1", "0.1 to 10 nM"),
    ("Cc1ccncc1N1C[C@@]2(CCC[C@](C)(Cn3cnc4ccc(C#N)cc43)C2)OC1=O", "0.1 to 10 nM"),
    ("COc1ccc(-c2csc(CN3C[C@@]4(CCC[C@H](Cn5cnc6ccc(C#N)cc65)C4)OC3=O)n2)cc1C", "0.1 to 10 nM"),
]

Prompt line: // returns reported IC50 for input "CCOc1cc(C)c(N2C[C@@]3(CCC[C@H](Cn4cnc5cc(F)c(C#N)cc54)C3)OC2=O)cn1"
Response line: 0.1 to 10 nM

Prompt line: // returns reported IC50 for input CCOc1ccc(CN2CC3(CCC[C@](C)(Cn4cnc5ccc(C#N)cc54)C3)OC2=O)nc1 (stereo in doubt)
Response line: 0.1 to 10 nM

Prompt line: // returns reported IC50 for input C[C@]1(Cn2cnc3ccc(C#N)cc32)CCCC2(CN(Cc3cc(F)ccn3)C(=O)O2)C1 (stereo in doubt)
Response line: 0.1 to 10 nM

Prompt line: // returns reported IC50 for input N#Cc1cc(F)cc(-n2cc(CN3CC4(CCC[C@H](Cn5cnc6ccc(C#N)cc65)C4)OC3=O)nn2)c1 (stereo in doubt)
Response line: 0.1 to 10 nM

Prompt line: // returns reported IC50 for input "COc1ncccc1N1C[C@@]2(CCC[C@](C)(Cn3cnc4ccc(C#N)cc43)C2)OC1=O"
Response line: 50 to 500 nM

---

Target: human TRPV4 (Homo sapiens, UniProt Q9HBA0)
Experiment: Ligand-gated assay (Fluo4 calcium, FLIPR; inhibition of agonist-induced activation)
Settings: HEK-293-MSR-II cells transduced with BacMam human TRPV4; agonist at EC80
The following compounds are shown together with reported IC50 values.

# SMILES INPUT, VAL
data = [
    ("CC(C)(C)c1noc(N2C[C@@]3(CCC[C@](C)(Cn4cnc5ccc(C#N)cc54)C3)OC2=O)c1F", "0.0001 to 0.01 µM"),
    ("CC(C)Cc1noc(C(C)(C)CN2C[C@@]3(CCC[C@H](Cn4cnc5ccc(C#N)cc54)C3)OC2=O)n1", "0.0001 to 0.01 µM"),
    ("CC(C)(C)c1noc(N2C[C@@]3(CCC[C@](C)(Cn4cnc5ccc(C#N)cc54)C3)OC2=O)c1Cl", "0.0001 to 0.01 µM"),
]

Prompt line: // returns reported IC50 for input "COc1cnc(N2C[C@@]3(CCC[C@](C)(Cn4cnc5ccc(C#N)cc54)C3)OC2=O)cn1"
Response line: 0.01 to 0.05 µM

Prompt line: // returns reported IC50 for input "C[C@]1(Cn2cnc3ccc(C#N)cc32)CCC[C@@]2(CN(c3cc(-c4ccccc4)no3)C(=O)O2)C1"
Response line: 0.01 to 0.05 µM

Prompt line: // returns reported IC50 for input "COc1cc(OC)c(N2C[C@@]3(CCC[C@](C)(Cn4cnc5ccc(C#N)cc54)C3)OC2=O)cn1"
Response line: 0.0001 to 0.01 µM

Prompt line: // returns reported IC50 for input "COc1ccc(N2C[C@@]3(CCC[C@](C)(Cn4cnc5ccc(C#N)cc54)C3)OC2=O)cn1"
Response line: 0.0001 to 0.01 µM
